biological target: Neuropeptide FF receptor 1 (Homo sapiens, UniProt Q9GZQ6); test: Displacement of [3H]FFRF-NH2 from human flag-tagged NPFF1 receptor expressed in CHO cells at 5 uM by scintillation counting; type: cell-based
Sequence (Q9GZQ6 whole entry): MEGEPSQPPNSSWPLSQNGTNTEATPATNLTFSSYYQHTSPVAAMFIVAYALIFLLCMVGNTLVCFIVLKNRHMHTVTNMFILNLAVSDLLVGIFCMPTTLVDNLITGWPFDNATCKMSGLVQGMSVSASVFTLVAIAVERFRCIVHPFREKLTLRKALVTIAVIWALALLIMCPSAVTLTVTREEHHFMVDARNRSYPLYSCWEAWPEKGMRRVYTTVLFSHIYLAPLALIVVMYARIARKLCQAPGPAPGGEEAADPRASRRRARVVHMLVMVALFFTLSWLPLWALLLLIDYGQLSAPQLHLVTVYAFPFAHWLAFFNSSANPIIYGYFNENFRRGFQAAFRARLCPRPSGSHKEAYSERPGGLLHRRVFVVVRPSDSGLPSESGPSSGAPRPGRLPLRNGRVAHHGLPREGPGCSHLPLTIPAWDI
assay metric: inhibition (%)
// units = %; emit number, no label

**Query** Given COc1ccccc1C(=O)N[C@@H](CCCNC(=N)N)C(=O)N[C@@H](Cc1ccccc1)C(N)=O , state its recorded inhibition.
**Result** 96

**Query** For COc1ccc(CC(=O)N[C@@H](CCCNC(=N)N)C(=O)N[C@@H](Cc2ccccc2)C(N)=O)cc1OC , what is its reported inhibition?
**Result** 70

**Query** Which inhibition value is on record for CCCCCCCCCCC(=O)N[C@@H](CCCNC(=N)N)C(=O)N[C@@H](Cc1ccccc1)C(N)=O ?
**Result** 100

**Query** inhibition for N=C(N)NCCC[C@@H](NC(=O)c1ccccc1)C(=O)N[C@@H](Cc1ccccc1)C(N)=O ?
**Result** 90

**Query** # query: inhibition of entry N=C(N)NCCC[C@@H](NC(=O)C(c1ccccc1)c1ccccc1)C(=O)N[C@H](Cc1ccccc1)C(N)=O
**Result** 86

**Query** If you can, please state the reported inhibition value of N=C(N)NCCC[C@H](NC(=O)c1ccc(-c2ccccc2)cc1)C(=O)N[C@@H](Cc1ccccc1)C(N)=O .
**Result** 43

**Query** Which measured inhibition value corresponds to N=C(N)NCCC[C@@H](NC(=O)/C=C/c1ccccc1)C(=O)N[C@@H](Cc1ccccc1)C(N)=O ?
**Result** 95

**Query** Bench note: what inhibition did CCCCCC(=O)N[C@@H](CCCNC(=N)N)C(=O)N[C@@H](Cc1ccccc1)C(N)=O show?
**Result** 95

**Query** Query: inhibition; subject: N=C(N)NCCC[C@H](NC(=O)c1ccncc1)C(=O)N[C@@H](Cc1ccccc1)C(N)=O
**Result** 74

**Query** What does the data say about its inhibition? Entry: CC(C)(C)c1ccc(C(=O)N[C@@H](CCCNC(=N)N)C(=O)N[C@@H](Cc2ccccc2)C(N)=O)cc1
**Result** 94

**Query** What inhibition value was documented for this molecule, N=C(N)NCCC[C@@H](NC(=O)C(c1ccccc1)c1ccccc1)C(=O)N[C@@H](Cc1ccccc1)C(N)=O ?
**Result** 82

**Query** // query inhibition value for entry N=C(N)NCCC[C@H](NC(=O)c1ccc2cc[nH]c2c1)C(=O)N[C@@H](Cc1ccccc1)C(N)=O
**Result** 89

**Query** Consider the molecule shown here: COc1ccc(/C=C/C(=O)N[C@@H](CCCNC(=N)N)C(=O)N[C@@H](Cc2ccccc2)C(N)=O)cc1OC What is its recorded inhibition?
**Result** 77

**Query** Given the entry N=C(N)NCCC[C@H](NC(=O)c1cnc2ccccc2c1)C(=O)N[C@@H](Cc1ccccc1)C(N)=O , report its measured inhibition.
**Result** 79

**Query** Could you share which inhibition value was measured for N=C(N)NCCC[C@H](NC(=O)c1ccco1)C(=O)N[C@@H](Cc1ccccc1)C(N)=O ?
**Result** 92

**Query** Which inhibition is reported for this molecule? N=C(N)NCCC[C@H](NC(=O)c1cccnc1)C(=O)N[C@@H](Cc1ccccc1)C(N)=O
**Result** 64

**Query** May I ask what inhibition has been recorded for N=C(N)NCCC[C@@H](NC(=O)c1cccc(-c2ccccc2)c1)C(=O)N[C@@H](Cc1ccccc1)C(N)=O ?
**Result** 99

FYI, the data here is from ChEMBL document CHEMBL2203185.
